target_desc: Low molecular weight phosphotyrosine protein phosphatase (Homo sapiens)
assay_procedure: inhibition of human LMPTP enzyme activity – biochemical, absorbance, pNPP substrate, LMPTP-A isoform, set 2, orthogonal assay, dose response (AID 743308)
recorded_conditions: recombinant LMPTP-A
pIC50: −log10 of the molar value.
assay_endpoint: pIC50

[
  {
    "mol": "COc1ccc(-c2cc(NCCCN3CCCCC3)c3ccccc3n2)cc1",
    "target_desc": "Low molecular weight phosphotyrosine protein phosphatase (Homo sapiens)",
    "readout_number": 5.45
  }
]
